All values here come from ChEMBL document CHEMBL3098028.

Tested on: Plasmodium falciparum
Protocol notes: Antiplasmodial activity against chloroquine-resistant Plasmodium falciparum K1 after 24 hrs by [3H]hypoxanthine incorporation assay
Type: functional, organism-based
Test readout: IC50 (nM)
Dear colleague, please return just the value in nM, with no unit written.

| Molecule | Value unit | IC50 |
| --- | --- | --- |
| COc1ccc(C(NCCNc2ccnc3cc(Cl)ccc23)c2nnn[nH]2)cc1 (stereo not drawn) | nM | 13200 |
| CC(C)(C)n1nnnc1C(NCCCCNc1ccnc2cc(Cl)ccc12)c1ccccc1 (stereo not drawn) | nM | 8 |

Attention now shifts to the item below.
[ask] What measured IC50 goes with CC(C)(C)n1nnnc1C(NCCNc1ccnc2cc(Cl)ccc12)c1ccc(Cl)c(Cl)c1 (stereo not drawn) ?
[reply] 8
